Biological target: T1, YTHDF1 YTH domain (UniProt Q9BYJ9 Q9BYJ9:375-552)
T1 sequence: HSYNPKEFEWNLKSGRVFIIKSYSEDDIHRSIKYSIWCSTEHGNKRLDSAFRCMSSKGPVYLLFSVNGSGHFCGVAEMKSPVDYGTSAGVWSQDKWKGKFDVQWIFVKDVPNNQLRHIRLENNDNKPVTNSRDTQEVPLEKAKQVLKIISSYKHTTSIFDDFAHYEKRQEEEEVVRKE
Assay: FP; 25 mM Tris-HCl pH 7.5, 150 mM NaCl, 25 C
Settings: tags: N-terminal His-tag (pET28a), E. coli BL21(DE3); label: 5'-FAM
READOUT KIND: Kd
Record the result as a number with its unit.

Problem: Need Kd, item GAACCGGACUGUCUUA (ssRNA, m6A at position 8) [FAM-m6A-RNA]
Result: 800 nM
